Target: furin, P09958;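 note: purified furin at 1:10 enzyme:substrate in 50 mM HEPES pH 7.5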
Sequence (P09958 whole entry): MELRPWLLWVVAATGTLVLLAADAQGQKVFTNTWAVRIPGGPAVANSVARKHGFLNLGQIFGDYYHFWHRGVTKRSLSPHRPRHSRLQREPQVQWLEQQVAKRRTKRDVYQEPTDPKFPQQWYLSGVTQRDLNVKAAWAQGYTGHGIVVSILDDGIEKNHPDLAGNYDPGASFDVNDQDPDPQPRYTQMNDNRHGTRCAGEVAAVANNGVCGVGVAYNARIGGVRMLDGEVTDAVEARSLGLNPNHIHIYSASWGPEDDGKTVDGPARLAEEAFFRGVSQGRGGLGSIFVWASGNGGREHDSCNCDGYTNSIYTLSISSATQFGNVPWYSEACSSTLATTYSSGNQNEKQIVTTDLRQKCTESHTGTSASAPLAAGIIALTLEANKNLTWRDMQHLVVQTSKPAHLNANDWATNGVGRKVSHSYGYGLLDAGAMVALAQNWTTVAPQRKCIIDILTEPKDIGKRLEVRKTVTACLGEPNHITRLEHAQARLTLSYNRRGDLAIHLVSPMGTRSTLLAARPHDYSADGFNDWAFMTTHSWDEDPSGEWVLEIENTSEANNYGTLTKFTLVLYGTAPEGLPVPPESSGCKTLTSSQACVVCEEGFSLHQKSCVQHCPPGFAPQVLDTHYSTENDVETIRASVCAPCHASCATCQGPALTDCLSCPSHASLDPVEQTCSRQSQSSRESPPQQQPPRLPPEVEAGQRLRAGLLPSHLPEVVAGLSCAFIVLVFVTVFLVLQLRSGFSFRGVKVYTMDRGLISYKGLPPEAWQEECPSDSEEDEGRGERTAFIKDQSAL
Assay: furin cleavage Z-score vs untreated control; higher = more cleavage, active = 3.5 or more, inactive = 1 or less, 8 variable residues between constant flanks
Conditions: 15 min
Some of the results follow. The true hit rate is not given.
Possible outcomes: TRUE for active, FALSE for inactive

{"item sequence": "CATARRHGRDAGNASASA [FS-878]", "assigned class": "TRUE"}
{"item sequence": "CAKGWRLLAPAGNASASA [HC671]", "assigned class": "FALSE"}
{"item sequence": "CAWLIRRRRSAGNASASA [FS-1180]", "assigned class": "TRUE"}
{"item sequence": "CARQKRFVLSAGNASASA [FU6]", "assigned class": "TRUE"}
{"item sequence": "CARQKRLFCRAGNASASA [FS-2755]", "assigned class": "FALSE"}
{"item sequence": "CARQKRFVLSAGNASASA [FS-2444]", "assigned class": "TRUE"}
{"item sequence": "CALLLLLALPAGNASASA [HC559]", "assigned class": "FALSE"}
{"item sequence": "CAVVCSSMSYAGNASASA [HC95]", "assigned class": "FALSE"}
{"item sequence": "CAALMTGYTGAGNASASA [HC880]", "assigned class": "FALSE"}
{"item sequence": "CATAARRLRDAGNASASA [FS-382]", "assigned class": "TRUE"}
{"item sequence": "CACFRKHPDAAGNASASA [HC453]", "assigned class": "FALSE"}
{"item sequence": "CARWRRTKGAAGNASASA [FS-1873]", "assigned class": "FALSE"}
{"item sequence": "CAAPGRDGRDAGNASASA [FS-397]", "assigned class": "FALSE"}
{"item sequence": "CAWWRRRRRSAGNASASA [FS-1503]", "assigned class": "TRUE"}
{"item sequence": "CASTWCSAHLAGNASASA [HC2508]", "assigned class": "FALSE"}
